Below, each entry is listed alongside its reported IC50.
- Tested on: methicillin‐resistant Staphylococcus aureus (MRSA) biofilm
- condition-context: read-out: IC50 Biofilm; MRSA in 10% tryptic soy broth + 0.1% glucose, overnight 37°C, adhered biomass stained with 0.1% crystal violet, A595; peptide array samples; nplr fit
Ends that are not written are not given here.
Unit nM implied. Number only.

Before answering, review these 2 worked examples.
WKKKGRMRWKWI-NH2 [compound 10]: 270
LKIKVHIYRMKR-NH2 [compound 20]: 350

Asked: GET /values?readout=IC50&item= VRLIVAVRIWRR-NH2 [IDR‐1018, reference compound]
Given back: 1420

Asked: // query IC50 value for entry KLVRRKGRLYVI-NH2 [compound 50]
Given back: 400

Asked: May I ask what IC50 has been recorded for RALKKIIKRLCR-NH2 [compound 86] ?
Given back: 380

Asked: // lookup IC50 for RARGRKRLVVTI-NH2 [compound 40]
Given back: 300

---

- System: methicillin‐resistant Staphylococcus aureus (MRSA)
- condition-context: read-out: IC50 antimicrobial (planktonic); MRSA in 10% tryptic soy broth + 0.1% glucose, overnight 37°C, growth by OD600; peptide array samples; nplr fit
Ends that are not written are not given here.
# key: entry, value: IC50

RLHGFLIRMRTR-NH2 [compound 44]: 1190 nM

Asked: Reported IC50, substance RALKKIIKRLCR-NH2 [compound 86] : ____
Given back: 710 nM

Asked: Item under review: RRRAKGRIRLIV-NH2 [compound 62] . Reported IC50?
Given back: 890 nM

Asked: Could you tell me which IC50 is on file for VRLIVAVRIWRR-NH2 [IDR‐1018, reference compound] ?
Given back: 1730 nM

Asked: Look at this substance and give its reported IC50. GLKSFARVLKKI-NH2 [compound 33]
Given back: 1150 nM

---

Recorded IC50 by entry
- Tested on: methicillin‐resistant Staphylococcus aureus (MRSA) biofilm
- condition-context: read-out: IC50 Biofilm; MRSA in 10% tryptic soy broth + 0.1% glucose, overnight 37°C, adhered biomass stained with 0.1% crystal violet, A595; peptide array samples; nplr fit
Ends that are not written are not given here.
Answer with the number, then the unit.

RVVRRKGRIYIL-NH2 [compound 81]: 440 nM
LFKFLGKKVLKT-NH2 [compound 9]: 470 nM

// next item, IC50 requested
Asked: Need IC50, item RGFVRLKKWFNI-NH2 [compound 39]
Given back: 230 nM
